Taken from patent US4697036A.

Readings of Change in body temperature after 1 hour for the listed compounds
Assay: Antipyretic activity by oral administration in rats (change in body temperature)
Type: in vivo
Settings: 30 μM/kg/oral, after 1 hour
Text: Antipyretic activity of compound (a) and (b) with respect to Naproxen and 5-bromo-Naproxen (c) by oral administration in rats
endpoint: Change in body temperature after 1 hour (°C)

> print(dat)
                                   compound  test.value
1  COc1ccc2cc([C@H](C)C(=O)O)ccc2c1Br [(c), reference compound]       -0.17
2  COC(=O)C(O)C(OC(=O)C(C)c1ccc2c(Br)c(OC)ccc2c1)C(=O)OC (stereo not shown) [(b)]       -0.49
3  COc1ccc2cc([C@H](C)C(=O)O)ccc2c1 [Naproxen, reference compound]       -1.86
